As shown below, each of these sequences has a reported switch fluorescence ratio value.
System: ATP;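 note: ATP exposure 15 min at 22 °C before imaging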
Experiment: switch fluorescence ratio, 500 uM ATP over buffer (Cy3 cluster intensity, sum of 5 cycles each) (fold (ratio)); higher = stronger signal-on switching upon ATP binding; sequences stand for … in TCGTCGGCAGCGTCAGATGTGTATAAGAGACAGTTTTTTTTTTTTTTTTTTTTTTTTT…TC
Details: aptamer strand: ATP DNA aptamer (quencher-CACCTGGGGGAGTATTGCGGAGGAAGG + anchor), 100 nM annealed; ATP concentration: 500 uM
Lab note: record the figure alone, no unit after it.

Study these solved cases before continuing.
ATAGCTATAA; 1
GGGGTGGCCA; 0.99
AGCGAGGTCG; 1
CCGCAGAGCA; 1.79
TATGTGTGAC; 1.03

Ask: State its switch fluorescence ratio: "ATAGACGTCC"
Result: 0.993

====

Tested on: ATP;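 note: ATP exposure 15 min at 22 °C before imaging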
Assay: switch fluorescence ratio, 500 uM ATP over buffer (Cy3 cluster intensity, sum of 5 cycles each) (fold (ratio)); higher = stronger signal-on switching upon ATP binding; sequences stand for … in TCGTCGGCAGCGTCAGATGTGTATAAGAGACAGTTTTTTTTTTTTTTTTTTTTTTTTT…TC
Conditions: aptamer strand: ATP DNA aptamer (quencher-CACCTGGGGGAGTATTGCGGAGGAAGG + anchor), 100 nM annealed; ATP concentration: 500 uM
switch fluorescence ratio for assorted sequences
Lab note: write the figure by itself, no unit.

GTCGGTACTT; 0.996

Attention now turns to another entry.
Ask: Report measured switch fluorescence ratio; entry is "TTATCGGGTT"
Result: 0.973

====

Test system: ATP;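 note: ATP exposure 15 min at 22 °C before imaging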
Test: switch fluorescence ratio, 500 uM ATP over buffer (Cy3 cluster intensity, sum of 5 cycles each) (fold (ratio)); higher = stronger signal-on switching upon ATP binding; sequences stand for … in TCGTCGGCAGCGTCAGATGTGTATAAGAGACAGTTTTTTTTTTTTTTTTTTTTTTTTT…TC
Conditions: aptamer strand: ATP DNA aptamer (quencher-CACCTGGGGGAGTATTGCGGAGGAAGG + anchor), 100 nM annealed; ATP concentration: 500 uM
Is switch fluorescence ratio at least 1? Then 1 (yes). If not, 0 (no).

TTAATCAGAT; 0 (no)
TTTTGCCTCC; 1 (yes)
CTAAACAGGG; 1 (yes)

API: the following record is the query input.
Ask: Determine whether measured switch fluorescence ratio meets or exceeds 1 for "CAAGGGTAGG"
Result: 1 (yes)

====

Test system: ATP;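 note: ATP exposure 15 min at 22 °C before imaging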
Assay: switch fluorescence ratio, 500 uM ATP over buffer (Cy3 cluster intensity, sum of 5 cycles each) (fold (ratio)); higher = stronger signal-on switching upon ATP binding; sequences stand for … in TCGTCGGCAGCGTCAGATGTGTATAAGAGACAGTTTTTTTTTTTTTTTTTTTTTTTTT…TC
Settings: aptamer strand: ATP DNA aptamer (quencher-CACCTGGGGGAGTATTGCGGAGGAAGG + anchor), 100 nM annealed; ATP concentration: 500 uM
Measured switch fluorescence ratio accompanies every entry in the list below.
The answer should be a number; do not append a unit.

Answered examples (10):
GGGGTAAGGT; 0.99
TGGGAAGTTG; 0.956
TCTAAGGGGA; 1.06
TACGTTTAAT; 1.04
AGGGGGAACT; 1.03
TTTTATAAAG; 1
ATTTTTGTTA; 0.986
AGGATACTTT; 0.979
TTGTTTCTTG; 0.981
GTGATACTGG; 1.04

Ask: Answer with the recorded switch fluorescence ratio of "GGGCTATTTA" only.
Result: 1

Ask: Please give measured switch fluorescence ratio of the following entry: "GGTATATGTT"
Result: 1.01

Ask: Give switch fluorescence ratio for "TAACTAGCGA"
Result: 1.03

Ask: Look up switch fluorescence ratio of "AGGGGCGTAA" and report it.
Result: 1

Ask: Give a short answer stating reported switch fluorescence ratio for "GATATTGAGC" .
Result: 1.02

Ask: For the sequence "CTTTAAGCAA" , report switch fluorescence ratio.
Result: 4.65

====

Tested on: ATP;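 note: ATP exposure 15 min at 22 °C before imaging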
Assay: switch fluorescence ratio, 500 uM ATP over buffer (Cy3 cluster intensity, sum of 5 cycles each) (fold (ratio)); higher = stronger signal-on switching upon ATP binding; sequences stand for … in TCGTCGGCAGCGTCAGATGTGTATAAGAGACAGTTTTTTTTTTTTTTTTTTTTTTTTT…TC
Conditions: aptamer strand: ATP DNA aptamer (quencher-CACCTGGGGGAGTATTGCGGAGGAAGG + anchor), 100 nM annealed; ATP concentration: 500 uM
Reported property: switch fluorescence ratio
I only need the number, thanks.

See these solved cases before continuing.
AGGTAGGGAA; 0.993
TGTAGTGTTT; 1.03
TTTTGCGCGC; 0.994

Ask: Read the entry "TTTCAAAGAT" and write its reported switch fluorescence ratio.
Result: 1.22

Ask: Supply reported switch fluorescence ratio belonging to this sequence: "GACAGCCGGT"
Result: 1.01

Ask: Answer with reported switch fluorescence ratio of "TATATTACCC"
Result: 1.05

Ask: Give reported switch fluorescence ratio value for "CATGTTTTGG"
Result: 0.984

Ask: Report measured switch fluorescence ratio; entry is "TGTGGCCCAC"
Result: 0.989

Ask: Return value of switch fluorescence ratio for input "ATTGGGAGGG" , no commentary.
Result: 1.02

Ask: Using the record for "CATGCCGGGA" , state its measured switch fluorescence ratio.
Result: 1.22

Ask: Using known records, supply switch fluorescence ratio for "CGGTTTGCGG"
Result: 0.982

Ask: Look up and state reported switch fluorescence ratio for "GCTGGTGGGG"
Result: 0.964

Ask: Using the record for "TGTCGTTGGA" , state its measured switch fluorescence ratio.
Result: 0.998

Ask: In one line, give reported switch fluorescence ratio of the entry "ACTTTGTACG" .
Result: 1.06

Ask: Quick one: give measured switch fluorescence ratio for "CCAAAAAAGG"
Result: 0.963

Ask: Quote switch fluorescence ratio reported for "AGCCAGCTGC" please.
Result: 0.992

Ask: Provide measured switch fluorescence ratio value, entry: "AGCGGGTAGG"
Result: 1.02

Ask: Identify measured switch fluorescence ratio associated with "GGTTTAAGTG"
Result: 0.979

Ask: Read the entry "TACAAAAAGG" and write its reported switch fluorescence ratio.
Result: 0.981

Ask: Identify measured switch fluorescence ratio corresponding to "GGTGATACGG"
Result: 1.01

====

Parameter switch fluorescence ratio: see the listing below.
Tested on: ATP;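 note: ATP exposure 15 min at 22 °C before imaging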
Assay: switch fluorescence ratio, 500 uM ATP over buffer (Cy3 cluster intensity, sum of 5 cycles each) (fold (ratio)); higher = stronger signal-on switching upon ATP binding; sequences stand for … in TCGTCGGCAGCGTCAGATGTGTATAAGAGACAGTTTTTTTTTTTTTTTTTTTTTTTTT…TC
Settings: aptamer strand: ATP DNA aptamer (quencher-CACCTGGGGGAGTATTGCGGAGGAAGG + anchor), 100 nM annealed; ATP concentration: 500 uM

AATGACTATG; 0.976
AGTTAAGGCC; 1.09
GATGGCTGCG; 1.04
GGGCTAAATC; 1.01
CAGGGCAGCC; 1.01

Turning to the following sequence.
Ask: Identify measured switch fluorescence ratio associated with "TCTAGTGGGG"
Result: 1.01

====

Tested on: ATP;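 note: ATP exposure 15 min at 22 °C before imaging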
Experiment: switch fluorescence ratio, 500 uM ATP over buffer (Cy3 cluster intensity, sum of 5 cycles each) (fold (ratio)); higher = stronger signal-on switching upon ATP binding; sequences stand for … in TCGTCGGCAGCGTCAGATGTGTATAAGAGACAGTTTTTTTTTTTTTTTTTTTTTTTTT…TC
Conditions: aptamer strand: ATP DNA aptamer (quencher-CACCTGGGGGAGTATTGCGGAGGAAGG + anchor), 100 nM annealed; ATP concentration: 500 uM
Reported property: switch fluorescence ratio
Output spec: single numeric token, no unit.

TACATATTCG; 0.989
GTCCGGATGG; 1.02
TTCGTGGGTG; 1.03
CGATTCTGCT; 0.996
GGGGCAATAT; 3.69
AGGGTTACGC; 1.04
TGTTGTCAAG; 1.01
CAGGTATGTT; 1
TCAAATAGGA; 1.01
GCGAATTTTG; 0.999

Ask: Please supply the value of reported switch fluorescence ratio for the item "AGCTGAGTAG"
Result: 0.997

Ask: Annotate the sequence "TGAAAGATTA" with its measured switch fluorescence ratio.
Result: 1.01

Ask: Answer with the recorded switch fluorescence ratio of "GCATGCAGGG" only.
Result: 1.01

Ask: Hello, please tell me recorded switch fluorescence ratio for this one: "ATTGGATATT"
Result: 1.02

Ask: Item "TTTAGACGTT" : provide switch fluorescence ratio
Result: 1.02

Ask: Consider the sequence "AATCGGGCGT" and give its recorded switch fluorescence ratio.
Result: 0.982

Ask: Look up and state reported switch fluorescence ratio for "AGGCTTTGCA"
Result: 0.992

Ask: Determine its reported switch fluorescence ratio: "TTGAATTGCT"
Result: 0.986

Ask: For the sequence "AAGTTCACGT" , give its reported switch fluorescence ratio.
Result: 0.996

Ask: Return the recorded switch fluorescence ratio value; entry: "TAAGGAAGGA"
Result: 0.992
